molecular target: 5-HT Transporter (SERT) Sites in Mouse Brain (Mus musculus, UniProt Q60857); construct: Whole brains were removed and cortex and striata dissected out; from tissue; host or cells: C57BL/6 mouse frontal cortex homogenate; assay: Ex vivo [3H] citalopram binding after oral dosing; set-up: species or system C57BL/6 mice; conditions: 30 mg/kg, 60 minutes after treatment, vs vehicle
Sequence (Q60857 whole entry): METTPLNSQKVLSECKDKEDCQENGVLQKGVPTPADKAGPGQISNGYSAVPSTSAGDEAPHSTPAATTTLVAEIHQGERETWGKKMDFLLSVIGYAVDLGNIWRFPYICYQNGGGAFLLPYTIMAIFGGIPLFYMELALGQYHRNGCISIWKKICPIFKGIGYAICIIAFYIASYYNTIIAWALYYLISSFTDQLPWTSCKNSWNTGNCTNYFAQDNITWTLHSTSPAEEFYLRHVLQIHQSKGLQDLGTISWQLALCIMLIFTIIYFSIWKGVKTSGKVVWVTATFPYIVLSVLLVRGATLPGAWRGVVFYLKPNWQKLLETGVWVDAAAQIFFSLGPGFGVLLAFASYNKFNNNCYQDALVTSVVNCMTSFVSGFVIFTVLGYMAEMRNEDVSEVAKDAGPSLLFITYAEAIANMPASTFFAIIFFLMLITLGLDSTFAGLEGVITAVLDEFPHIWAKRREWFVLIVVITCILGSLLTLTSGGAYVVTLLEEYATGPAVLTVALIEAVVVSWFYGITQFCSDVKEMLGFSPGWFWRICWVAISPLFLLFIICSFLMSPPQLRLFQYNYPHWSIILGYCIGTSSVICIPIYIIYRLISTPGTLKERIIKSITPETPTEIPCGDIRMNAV
So I've got a bunch of compounds here, and I need their % Transporter Occupancy, SERT values.
Report only the number, with the unit % understood.

Which % Transporter Occupancy, SERT value is on record for CNC(C)C1(c2ccc3ccccc3c2)CCCCC1 (single isomer, unassigned) [58 E1] ? 86

Which % Transporter Occupancy, SERT value is on record for CC(N(C)C)C1(c2ccc3ccccc3c2)CCCCC1 (single isomer, unassigned) [56 E1] ? 95

Which % Transporter Occupancy, SERT value is on record for CN(C)C[C@]1(c2ccc3ccccc3c2)CC[C@](C)(O)CC1 ? 91

Which % Transporter Occupancy, SERT value is on record for CNCC1(c2ccc(Cl)c(Cl)c2)CCC(C)(O)CC1 (centres unmarked) ? 64

Which % Transporter Occupancy, SERT value is on record for CN(C)CC1(c2ccc(Cl)c(Cl)c2)CCC(C)(O)CC1 (centres unmarked) ? 3

====

molecular target: DA Transporter (DAT) Sites in Mouse Brain (Mus musculus); construct: Striatum was used to determine occupancy of DA transporter sites; from tissue; host or cells: C57BL/6 mouse striatum homogenate; assay: Ex vivo [3H] WIN 35428 binding after oral dosing; set-up: species or system C57BL/6 mice; details: 10 mg/kg, mice sacrificed 60 minutes after treatment, striatum
measurement-kind: Mean Specific Binding (dpm) ± S.E.M., DAT
Report only the number, with the unit dpm understood.

State its Mean Specific Binding (dpm) ± S.E.M., DAT on DA Transporter (DAT) Sites in Mouse Brain (Mus musculus): CN(C)C[C@]1(c2ccc3ccccc3c2)CC[C@](C)(O)CC1 18872

State its Mean Specific Binding (dpm) ± S.E.M., DAT on DA Transporter (DAT) Sites in Mouse Brain (Mus musculus): CNCC1(c2ccc(Cl)c(Cl)c2)CCC(C)(O)CC1 (stereo not drawn) 15879

State its Mean Specific Binding (dpm) ± S.E.M., DAT on DA Transporter (DAT) Sites in Mouse Brain (Mus musculus): CNC(C)C1(c2ccc3ccccc3c2)CCCCC1 (single isomer, unassigned) [58 E1] 17215

State its Mean Specific Binding (dpm) ± S.E.M., DAT on DA Transporter (DAT) Sites in Mouse Brain (Mus musculus): CC(N(C)C)C1(c2ccc3ccccc3c2)CCCCC1 (single isomer, unassigned) [56 E1] 33478

State its Mean Specific Binding (dpm) ± S.E.M., DAT on DA Transporter (DAT) Sites in Mouse Brain (Mus musculus): CN(C)CC1(c2ccc(Cl)c(Cl)c2)CCC(C)(O)CC1 (stereo not drawn) 33230

State its Mean Specific Binding (dpm) ± S.E.M., DAT on DA Transporter (DAT) Sites in Mouse Brain (Mus musculus): CNC(C)C1(c2ccc(Cl)c(Cl)c2)CCCCC1.Cl (single isomer, unassigned) [48 E1, hydrochloride] 9792

====

So I've got a bunch of compounds here, and I need their Mean Specific Binding (dpm) ± S.E.M., DAT values.
target: DA Transporter (DAT) Sites in Mouse Brain (Mus musculus, UniProt Q61327); construct: Striatum was used to determine occupancy of DA transporter sites; from tissue; host or cells: C57BL/6 mouse striatum homogenate; test: Ex vivo [3H] WIN 35428 binding after oral dosing; set-up: species or system C57BL/6 mice; details: 30 mg/kg, mice sacrificed 60 minutes after treatment, striatum
Sequence (Q61327 whole entry): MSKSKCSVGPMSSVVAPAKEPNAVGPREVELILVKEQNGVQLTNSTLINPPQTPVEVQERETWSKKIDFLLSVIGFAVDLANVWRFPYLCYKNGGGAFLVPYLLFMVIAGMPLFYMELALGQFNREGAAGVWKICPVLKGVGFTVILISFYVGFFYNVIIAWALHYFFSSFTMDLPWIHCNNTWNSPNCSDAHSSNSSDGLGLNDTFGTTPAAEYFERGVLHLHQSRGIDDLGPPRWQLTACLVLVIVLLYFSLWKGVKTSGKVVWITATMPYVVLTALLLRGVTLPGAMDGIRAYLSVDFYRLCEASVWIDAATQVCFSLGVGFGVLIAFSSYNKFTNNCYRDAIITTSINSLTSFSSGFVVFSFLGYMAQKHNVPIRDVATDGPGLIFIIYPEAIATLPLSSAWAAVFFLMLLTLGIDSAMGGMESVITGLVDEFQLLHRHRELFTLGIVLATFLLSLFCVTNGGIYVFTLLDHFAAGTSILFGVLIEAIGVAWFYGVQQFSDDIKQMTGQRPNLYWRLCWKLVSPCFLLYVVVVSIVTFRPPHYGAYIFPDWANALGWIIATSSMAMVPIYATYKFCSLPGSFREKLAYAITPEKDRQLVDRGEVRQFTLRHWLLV
Param answer (str): number followed by unit.

Which Mean Specific Binding (dpm) ± S.E.M., DAT value is on record for CC(N(C)C)C1(c2ccc3ccccc3c2)CCCCC1 (single isomer, unassigned) [56 E1] ? 14637 ± 1567 dpm

Which Mean Specific Binding (dpm) ± S.E.M., DAT value is on record for CNC(C)C1(c2ccc(Cl)c(Cl)c2)CCCCC1.Cl (single isomer, unassigned) [48 E1, hydrochloride] ? 3173 ± 541 dpm

Which Mean Specific Binding (dpm) ± S.E.M., DAT value is on record for CNC(C)C1(c2ccc3ccccc3c2)CCCCC1 (single isomer, unassigned) [58 E1] ? 12876 ± 2152 dpm

Which Mean Specific Binding (dpm) ± S.E.M., DAT value is on record for CNCC1(c2ccc(Cl)c(Cl)c2)CCC(C)(O)CC1 (stereo not drawn) [Compound 276] ? 10397 ± 931 dpm

Which Mean Specific Binding (dpm) ± S.E.M., DAT value is on record for CN(C)CC1(c2ccc(Cl)c(Cl)c2)CCC(C)(O)CC1 (stereo not drawn) [Compound 277] ? 31743 ± 4406 dpm

Which Mean Specific Binding (dpm) ± S.E.M., DAT value is on record for CN(C)C[C@]1(c2ccc3ccccc3c2)CC[C@](C)(O)CC1 [Compound 225] ? 14618 ± 1209 dpm

Cited source for all entries: patent EP1976513B1
